# Test system: UO-31
# Protocol description: NCI tumour cell line growth inhibition, 48 h
Calls of active or inactive are those of the source. Rule as the data show it: active = GI50 up to about 1.1 µM and inactive = higher.
Field 'call' accepts active, inactive

Request: Name the outcome recorded for C=CCCCCCCCCCP(=O)(c1ccccc1)c1ccc2c(c1)OCCOCCOCCOCCO2 (centres undefined) in the assay.
Result: inactive

Request: Name the outcome recorded for `O=C(CCc1ccc(O)c(O)c1)NCCc1cc(O)cc(OCc2ccccc2)c1` in the assay.
Result: inactive

Request: Name the outcome recorded for `CN(c1ccccc1)S(=O)(=O)c1ccccc1[N+](=O)[O-]` in the assay.
Result: inactive

Request: Name the outcome recorded for CC(=O)Oc1c(C)cc2c(c1C)C(C)CN2C(C)=O (centres undefined) in the assay.
Result: inactive

Request: Name the outcome recorded for `COc1ccc(CN[C@H]2CCc3cc(OC)c(OC)c(OC)c3-c3ccc(SC)c(=O)cc32)c(OC)c1OC` in the assay.
Result: active

Request: Name the outcome recorded for `CN(C)CCCSc1c2ccccc2nc2cc(NCC(=O)Nc3ccccc3-c3ccccc3NC(=O)CNc3ccc4c(SCCCN(C)C)c5ccccc5nc4c3)ccc12` in the assay.
Result: inactive

Request: Name the outcome recorded for `COc1cc2c(cc1OC)CC(=O)Nc1cc(OC)c(OC)cc1CC2` in the assay.
Result: inactive

Request: Name the outcome recorded for CCN(CC)CCN(C)c1ccc(CO)c2c1c(=O)c1ccccc1[s+]2[O-] (centres undefined) in the assay.
Result: inactive

Request: Name the outcome recorded for `Cc1ccc([Se](=C(C(=O)c2ccccc2)C(=O)c2ccccc2)c2ccc(C)cc2)cc1` in the assay.
Result: inactive

Request: Name the outcome recorded for CC(=O)Nc1cccc(N2C(=O)/C(=C\c3cccc(Oc4ccccc4)c3)S(=O)(=O)C2c2ccccc2)c1 (centres undefined) in the assay.
Result: inactive

Request: Name the outcome recorded for O=c1[nH]c(=O)n(C2CC(O)C(CO)O2)cc1OCCCc1ccccc1 (centres undefined) in the assay.
Result: inactive

Request: Name the outcome recorded for `Cc1ccc(NC(=O)CC/C(CC(=O)C(C)(C)C)=N/NC(=O)C[N+](C)(C)C)cc1C` in the assay.
Result: inactive

Request: Name the outcome recorded for `O=C1Nc2ccccc2N/C1=C\C(=O)c1ccccc1O` in the assay.
Result: inactive

Request: Name the outcome recorded for COc1ccc(CNC(C)C(=O)O)cc1 (centres undefined) in the assay.
Result: inactive

Request: Name the outcome recorded for CCN(CC)C(=O)COc1cc2c(O)c3c(O)c(C)c4c(c13)C(=O)C(C)(OC=CC(OC)C(C)C(OC(C)=O)C(C)C(O)C(C)C(O)C(C)C=CC=C(C)C(=O)N2)O4 (centres undefined) in the assay.
Result: inactive

Request: Name the outcome recorded for CCOC(=O)CCC(NC(=O)OCc1ccccc1)C(=O)NC(CCC(=O)OCC)C(=O)NC(CCC(=O)OCC)C(=O)NC(CCC(=O)OCC)C(=O)NC(CCC(=O)OCC)C(=O)NC(CCC(=O)OCC)C(=O)NC(CCC(=O)OCC)C(=O)OCC (centres undefined) in the assay.
Result: inactive

Request: Name the outcome recorded for `CCCCCCCCCCCCCCCCCc1cccc(OCOCCOC)c1CO` in the assay.
Result: inactive

Request: Name the outcome recorded for `O=C(NO)c1ccc(OCc2cccc(Cl)c2)cc1` in the assay.
Result: inactive

Request: Name the outcome recorded for `C=CCC1=C(C)C[C@@H]2CCC(=O)C=C12` in the assay.
Result: inactive
